Ref: patent US12285431B2

Target: CDK4/CyclinD1 (Homo sapiens)
Assay: CDK4/cyclinD1 kinase assay (Nanosyn, Caliper microfluidic kinase detection)
Format: biochemical
Conditions: Table 2; 12-point dose-response, ATP at Km (200 μM), 10 hr; read-out: CDK4/CycD1 IC50
Labelling: IC50 reported below 3 nM becomes t; at or above becomes f.

Worked examples, 5 compounds total:
1. CCN(CC)C1CCN(c2ccc(Nc3ncc4cc5n(c4n3)C3(CCCCC3)CNC5=O)nc2)C1 (centres unmarked) [QQ]: f
2. CC(C)N1CCN(C(=O)c2ccc(Nc3ncc4cc5n(c4n3)C3(CCCCC3)CNC5=O)nc2)CC1 [II]: t
3. C[C@@H]1CN(c2ccc(Nc3ncc4cc5n(c4n3)C3(CCCCC3)CNC5=O)nc2)C[C@H](C)N1C[C@@H](C)O [MM]: t
4. CC1CN(c2ccc(Nc3ncc4cc5n(c4n3)C3(CCCCC3)CNC5=O)nc2)CCN1CCC(C)(C)C (centres unmarked) [G]: t
5. O=C1NCC2(CCCCC2)n2c1cc1cnc(Nc3ccc(N4CCC(N5CCC(C(F)(F)F)CC5)CC4)cn3)nc12 [X]: t

Problem: Please check: IC50 for O=C1NCC2(CCCC2)n2c1cc1cnc(Nc3ccc(N4CCC(N5CCCCC5)CC4)cn3)nc12 [HHH] , strictly under 3 nM or not?
Solution: f

Problem: Please check: IC50 for O=C1NCC2(CCCCC2)n2c1cc1cnc(Nc3ccc(N4CCN(CC5CC5)CC4)cn3)nc12 [HH] , strictly under 3 nM or not?
Solution: t

Problem: Please check: IC50 for O=C1NCC2(CCCC2)n2c1cc1cnc(Nc3ccc(N4CCNCC4)cn3)nc12 [QQQ] , strictly under 3 nM or not?
Solution: f

Problem: Please check: IC50 for CN(C)C1CCN(c2ccc(Nc3ncc4cc5n(c4n3)C3(CCCC3)CNC5=O)nn2)CC1 [TTT] , strictly under 3 nM or not?
Solution: f

---

Target: CDK4/CyclinD1 (Homo sapiens)
Experiment: CDK4/cyclinD1 kinase assay (Nanosyn, Caliper microfluidic kinase detection)
Assay type: biochemical
Details: Table 2; 12-point dose-response, ATP at Km (200 μM), 10 hr; read-out: CDK4/CycD1 IC50
pIC50: −log10 of the molar value.
Outcome label depends on pIC50 relative to 9: at/above gives True, below gives False.

1. C[C@@H]1CN(c2ccc(Nc3ncc4cc5n(c4n3)C3(CCCCC3)CNC5=O)nc2)C[C@H](C)N1C: False
2. C[C@@H](O)CN1CCN(c2ccc(Nc3ncc4cc5n(c4n3)C3(CCCC3)CNC5=O)nc2)C[C@@H]1C: False
3. CCC(C)CN1CCN(c2ccc(Nc3ncc4cc5n(c4n3)C3(CCCC3)CNC5=O)nc2)CC1 (centres unmarked) [FFF]: False
4. CC(C)N1CCN(c2ccc(Nc3ncc4cc5n(c4n3)C3(CCCCC3)CNC5=O)nc2)C[C@@H]1C: True

Problem: Hi team, for CC(C)N1CCN(Cc2ccc(Nc3ncc4cc5n(c4n3)C3(CCCCC3)CNC5=O)nc2)CC1 , is the recorded pIC50 at or above 9?
Solution: False

---

A collection of molecules and their measured IC50
Target: CDK4/CyclinD1 (Homo sapiens)
Assay: CDK4/cyclinD1 kinase assay (Nanosyn, Caliper microfluidic kinase detection)
Type: biochemical
Conditions: Table 2; 12-point dose-response, ATP at Km (200 μM), 10 hr; read-out: CDK4/CycD1 IC50
Please respond with the number in nM and leave the unit unwritten.

Problem: Any idea what IC50 was measured for CC(C)C1CN(c2ccc(Nc3ncc4cc5n(c4n3)C3(CCCCC3)CNC5=O)nc2)CCN1 (stereo not shown) [E] ?
Solution: 1

Problem: Any idea what IC50 was measured for CN(C)C1CCN(c2ccc(Nc3ncc4cc5n(c4n3)C3(CCCC3)CNC5=O)nc2)CC1 [YY] ?
Solution: 4.6

Problem: Any idea what IC50 was measured for CCN(CC)C1CCN(C(=O)c2ccc(Nc3ncc4cc5n(c4n3)C3(CCCCC3)CNC5=O)nc2)C1 (stereo not shown) [JJ] ?
Solution: 1.4

Problem: Any idea what IC50 was measured for CC(C)(C)CCN1CCN(c2ccc(Nc3ncc4cc5n(c4n3)C3(CCCC3)CNC5=O)nc2)CC1(C)C [CCC] ?
Solution: 2

---

A collection of molecules and their measured AUC (uM * h) p.o.
Test: Mouse pharmacokinetics (oral gavage / intravenous)
Type: in vivo, mice
Conditions: 30 mg/kg oral gavage
Please respond with the number in µM·h and leave the unit unwritten.

Take a look at these entries with their results.
1. O=C1NCC2(CCCCC2)n2c1cc1cnc(Nc3ccc(N4CCC(N5CCOCC5)CC4)cn3)nc12 [Compound U]: 3.3
2. O=C1NCC2(CCCCC2)n2c1cc1cnc(Nc3ccc(N4CCNCC4)cn3)nc12 [Compound Q]: 0.15
3. CN1CCN(c2ccc(Nc3ncc4cc5n(c4n3)C3(CCCCC3)CNC5=O)nc2)CC1 [Compound T]: 2.9

Now examine the next entry.
Problem: Any idea what AUC (uM * h) p.o. was measured for CC(C)N1CCN(c2ccc(Nc3ncc4cc5n(c4n3)C3(CCCCC3)CNC5=O)nc2)CC1 [Compound GG] ?
Solution: 1.9

---

Target: CDK4/CyclinD1 (Homo sapiens, UniProt P11802)
Sequence (P11802 whole entry, species assumed): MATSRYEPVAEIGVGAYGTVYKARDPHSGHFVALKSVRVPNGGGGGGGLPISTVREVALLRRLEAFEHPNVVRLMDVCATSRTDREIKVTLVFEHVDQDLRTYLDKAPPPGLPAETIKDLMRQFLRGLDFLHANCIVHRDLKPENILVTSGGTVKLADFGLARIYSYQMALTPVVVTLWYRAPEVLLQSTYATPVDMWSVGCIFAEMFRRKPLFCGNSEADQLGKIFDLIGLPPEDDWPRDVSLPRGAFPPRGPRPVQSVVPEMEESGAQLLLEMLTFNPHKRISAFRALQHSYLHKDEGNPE
Sequence (P24385 whole entry partner, species assumed): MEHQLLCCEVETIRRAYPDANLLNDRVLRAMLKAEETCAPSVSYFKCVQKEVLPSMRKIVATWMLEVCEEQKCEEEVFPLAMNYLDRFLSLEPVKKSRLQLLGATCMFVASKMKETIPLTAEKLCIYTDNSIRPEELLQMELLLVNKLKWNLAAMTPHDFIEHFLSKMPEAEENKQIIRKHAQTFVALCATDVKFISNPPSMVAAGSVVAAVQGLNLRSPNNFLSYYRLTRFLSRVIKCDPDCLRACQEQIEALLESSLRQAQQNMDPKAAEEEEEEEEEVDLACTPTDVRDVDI
Assay: CDK4/cyclinD1 kinase assay (Nanosyn, Caliper microfluidic kinase detection)
Assay type: biochemical
Details: read-out: CDK4/CycD1 IC50
measured_endpoint: IC50 (nM)
Please respond with the number in nM and leave the unit unwritten.

Problem: Any idea what IC50 was measured for CCN(CC)C1CCN(c2ccc(Nc3ncc4cc5n(c4n3)C3(CCCCC3)CNC5=O)nc2)C1 (stereo not shown) ?
Solution: 7.3

---

A collection of compounds and their measured Tmax (h) p.o.
Assay: Mouse pharmacokinetics (oral gavage / intravenous)
Format: in vivo, mice
Conditions: 30 mg/kg oral gavage
Please respond with the number in h and leave the unit unwritten.

Take a look at these entries with their results.
1. CN1CCN(c2ccc(Nc3ncc4cc5n(c4n3)C3(CCCCC3)CNC5=O)nc2)CC1: 1
2. O=C1NCC2(CCCCC2)n2c1cc1cnc(Nc3ccc(N4CCNCC4)cn3)nc12: 0.5
3. CC(C)N1CCN(c2ccc(Nc3ncc4cc5n(c4n3)C3(CCCCC3)CNC5=O)nc2)CC1: 1

Problem: Any idea what Tmax (h) p.o. was measured for O=C1NCC2(CCCCC2)n2c1cc1cnc(Nc3ccc(N4CCC(N5CCOCC5)CC4)cn3)nc12 ?
Solution: 0.5

---

Test system: HS68 cells
Test: G1 arrest (cellular G1 and S-phase) assay, propidium iodide flow cytometry
Assay type: cell-based, human
Conditions: Homo sapiens, Hs68, HS68 cells
pEC50: −log10 of the molar value.
Outcome label depends on pEC50 relative to 7: at/above gives criterion met, below gives criterion not met.

Worked examples, 3 compounds total:
1) CCC(C)CN1[C@H](C)CN(c2ccc(Nc3ncc4cc5n(c4n3)C3(CCCC3)CNC5=O)nc2)C[C@@H]1C (stereo partly drawn) [JJJ]: criterion not met
2) C[C@@H](O)CN1CCN(c2ccc(Nc3ncc4cc5n(c4n3)C3(CCCC3)CNC5=O)nc2)C[C@@H]1C [VV]: criterion not met
3) CCOCCN1CCN(c2ccc(Nc3ncc4cc5n(c4n3)C3(CCCC3)CNC5=O)nc2)CC1 [MMM]: criterion not met

Problem: Hi team, for CC1CCN(C2CCN(c3ccc(Nc4ncc5cc6n(c5n4)C4(CCCCC4)CNC6=O)nc3)CC2)C1 (stereo not drawn) [K] , is the recorded pEC50 at or above 7?
Solution: criterion met

Problem: Hi team, for CC(C)C[C@@H]1CNC(=O)c2cc3cnc(Nc4ccc(N5CCN(C)CC5)cn4)nc3n21 [XXX] , is the recorded pEC50 at or above 7?
Solution: criterion not met

---

A collection of molecules and their measured EC50
Tested on: A2058 (human metastatic melanoma cells, Rb-negative)
Assay: Cellular proliferation assay (CellTiter-Glo), A2058
Format: cell-based
Conditions: A2058, 144 h, cell viability after six days
Please respond with the number in nM and leave the unit unwritten.

1) CC1(C)CN(c2ccc(Nc3ncc4cc5n(c4n3)C3(CCCCC3)CNC5=O)nc2)CCN1CC1CC1 [H]: 1310
2) CC(C)N1CCN(c2ccc(Nc3ncc4cc5n(c4n3)C3(CCCCC3)CNC5=O)nc2)CC1 [Compound GG]: 2690
3) C[C@@H]1CN(c2ccc(Nc3ncc4cc5n(c4n3)C3(CCCCC3)CNC5=O)nc2)CCN1 [V]: 1350
4) CC(C)C1CN(c2ccc(Nc3ncc4cc5n(c4n3)C3(CCCCC3)CNC5=O)nc2)CCN1 (centres unmarked) [E]: 1370
5) CN(C)C1CCN(c2ccc(Nc3ncc4cc5n(c4n3)C3(CCCCC3)CNC5=O)nn2)CC1 [SS]: 1660

Problem: Any idea what EC50 was measured for CCN(CC)C1CCN(C2CCN(c3ccc(Nc4ncc5cc6n(c5n4)C4(CCCCC4)CNC6=O)nc3)CC2)C1 (centres unmarked) [RR] ?
Solution: 1620
